This section presents compounds with their documented CC50 at 5 days values.
- Assay notes: Cytotoxicity Determination
- Type: cell-based
- Test conditions: human, HEp-2 cells, without addition of virus, CCK-8 readout, bins (Table 4: greater than 100 μM; Table 5: equal to or less than 100 μM and greater than 10 μM), read-out: 50% cytotoxicity concentration (CC50)
Property: CC50 at 5 days

COc1cc(C(=O)N[C@@H](CCO)C(=O)c2ccc(OC)c(-c3ccc(F)c(C(F)(F)F)c3)n2)ccc1OCCO	> 100 µM
COc1ccc(C(=O)NCC(=O)N2CCCC(c3csc4c(F)cccc34)=N2)cc1OC	10 to 100 µM
COc1ccc(C(=O)NCC(=O)c2ccc(OC)c(-c3csc4c(F)cccc34)n2)cc1OC	> 100 µM
CC/C(=N\NC(=O)CNC(=O)c1ccc(OC)c(OC)c1)c1csc2ccccc12	10 to 100 µM
COc1cc(C(=O)NCC(=O)c2ccc(OC)c(-c3ccccc3)n2)ccc1OCCO	> 100 µM
COc1ccc(CNCC(=O)N/N=C/c2csc3ccccc23)cc1OC	10 to 100 µM
COc1ccc(C(=O)NCC(=O)c2ccc(OC)c(-c3csc(C(=O)O)c3)n2)cc1OC	> 100 µM
CCc1ccc(C(=O)CNC(=O)c2ccc(OCCO)c(OC)c2)nc1-c1csc2c(F)cccc12	10 to 100 µM
COc1ccc(C(=O)NCC(=O)c2ccc(OC)c(-c3ccc(C#N)cc3)n2)cc1OC	> 100 µM
COc1ccc(C(=O)NCC(=O)c2ccc(OC)c(-c3cccc(F)c3F)n2)cc1OC	> 100 µM
CCCC/C(=N\NC(=O)CNC(=O)c1ccc(OCC)c(OC)c1)c1csc2ccccc12	> 100 µM
COc1ccc(C(=O)NCC(=O)Nc2nccc3ccccc23)cc1OC	> 100 µM
COc1ccc(C(=O)NCC(=O)c2c[nH]cc(-c3csc4c(F)cccc34)c2=O)cc1OC	> 100 µM
COc1cc(C(=O)NCC(=O)c2ccc(OC)c(-c3ccc(OC(F)(F)F)cc3)n2)ccc1OCCO	> 100 µM
COc1ccc(C(=O)NCC(=O)c2cc(CC(C)C)cc(-c3csc4c(F)cccc34)n2)cc1OC	> 100 µM
COc1ccc(C(=O)NCC(=O)NNCCC(=O)c2csc3ccccc23)cc1OC	> 100 µM

Data provenance: patent US9724351B2
